- MEASUREMENT NOTES: chemical genetic growth profiling, strain panel (AID 1159580);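 also: tested at 20 µM; growth read once vehicle control cultures reached saturation at 30 °C; lower values mean less growth of the strain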
- TEST CONTEXT: S. cerevisiae deletion strains, growth OD, locus YIR030C, strain dcg1, active compounds read low
The campaign covered roughly 5,500 compounds. About 2,000 (36%) were called active. About 18% were inconclusive and are not listed. The list shows a part of the results.
Criterion: normalized growth strictly less than 1. Met: criterion met. Not met: criterion not met.

These recorded examples may help you get a feel for the data.
{"columns": ["STRUCTURE", "CLASS NAME"],
 "data": [
  ["CN1CCN(C(c2ccccc2)c2ccccc2)CC1", "criterion met"],
  ["CC(C)=CCC1=C(O)c2ccccc2C(=O)C1=O", "criterion met"],
  ["Cc1cccc(N(C)C(=S)Oc2ccc3ccccc3c2)c1", "criterion met"]
]}

Query string: Report whether reported normalized growth is lower than 1 (strictly) for `CC(=O)N[C@@H](CC(=O)O)C(=O)O`
Result string: criterion not met

Hey, just so you know, these numbers are from PubChem BioAssay AID1159580.
